experiment: Basal cytotoxicity test, neutral red uptake; assay type: cell-based; details: mouse, Balb/c 3T3 mouse embryo fibroblast cells
Reported IC50 at 24 h values follow for various compounds

Bench note: what IC50 at 24 h did Cc1ccc(S(=O)(=O)N2CC2C#N)cc1 (stereo not drawn) show?
52 µM

Bench note: what IC50 at 24 h did CCCCc1ccc(S(=O)(=O)N2CC2C=O)cc1 (stereo not drawn) show?
< 1 µM

Bench note: what IC50 at 24 h did Cc1ccc(S(=O)(=O)N2CC2C=O)cc1 (stereo not drawn) show?
4 µM

Further cases:
Bench note: what IC50 at 24 h did CCCCc1ccc(S(=O)(=O)N2CC2C(C)=O)cc1 (stereo not drawn) show?
< 1 µM

Bench note: what IC50 at 24 h did Cc1ccc(S(=O)(=O)N2CC2C(=O)O)cc1 (stereo not drawn) [Compound C-3612, Lithium 1-tosylaziridine-2-carboxylate] show?
2610 µM

Bench note: what IC50 at 24 h did CC(=O)C1CN1S(=O)(=O)c1ccc(C)cc1 (stereo not drawn) show?
8 µM
